What pIC50 was measured for each of the following?
# TARGET UNDER TEST: UniProt P09871
# Sequence (P09871 438-688 limits assumed): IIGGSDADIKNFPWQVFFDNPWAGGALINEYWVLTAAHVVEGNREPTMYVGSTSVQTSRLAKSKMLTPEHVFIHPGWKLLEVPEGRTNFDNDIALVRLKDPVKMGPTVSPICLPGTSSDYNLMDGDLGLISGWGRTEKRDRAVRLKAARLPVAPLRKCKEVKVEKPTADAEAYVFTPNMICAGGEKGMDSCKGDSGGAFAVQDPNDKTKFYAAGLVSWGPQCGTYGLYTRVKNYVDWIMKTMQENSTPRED
# Sequence (P09871 16-437 partner limits assumed): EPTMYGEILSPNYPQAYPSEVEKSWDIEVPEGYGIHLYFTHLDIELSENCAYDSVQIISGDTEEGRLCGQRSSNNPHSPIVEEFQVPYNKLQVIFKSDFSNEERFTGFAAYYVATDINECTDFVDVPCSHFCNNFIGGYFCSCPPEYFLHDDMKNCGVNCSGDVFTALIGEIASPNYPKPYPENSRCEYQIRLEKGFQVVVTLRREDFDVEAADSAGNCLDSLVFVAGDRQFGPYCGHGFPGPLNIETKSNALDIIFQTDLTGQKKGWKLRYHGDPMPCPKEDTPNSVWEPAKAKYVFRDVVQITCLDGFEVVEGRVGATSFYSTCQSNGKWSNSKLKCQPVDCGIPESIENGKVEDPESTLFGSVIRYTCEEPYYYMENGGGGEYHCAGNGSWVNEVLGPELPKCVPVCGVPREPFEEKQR
# MEASUREMENT PROTOCOL: Human C1s enzyme assay
# Format: biochemical
# CONDITION NOTES: Human C1s enzyme assay of Example 3; read-out: IC50 (Stars)
pIC50: −log10 of the molar value.

[Q] Tell me its pIC50 given COC[C@@]1(F)C[C@@H](C(=O)N[C@H](C)c2cc(C(=N)N)cs2)N(C(=O)CNC(=O)c2ccc(Oc3ccc(F)cc3)cc2)C1 [Compound 17] as the entry.
[A] > 7.00

[Q] Tell me its pIC50 given CCc1ccc(Oc2ccc(C(=O)NCC(=O)N3C[C@H](OC(F)F)C[C@H]3C(=O)N[C@H](C)c3cc(C(=N)N)cs3)cc2)cc1 [Compound 39] as the entry.
[A] > 7.00

[Q] Tell me its pIC50 given O=C(NCC(=O)N1CC2(C[C@H]1C(=O)NCc1cccs1)OCCO2)c1ccc(Oc2ccc(F)cc2)cc1 [Compound 124] as the entry.
[A] < 6.00

[Q] Tell me its pIC50 given C[C@H]1C[C@@H](C(=O)N[C@H](C)c2cc(C(=N)N)cs2)N(C(=O)CNC(=O)c2ccc(Oc3ccc(F)cc3)cc2)C1 [Compound 45] as the entry.
[A] > 7.00

[Q] Tell me its pIC50 given N=C(N)c1csc(CNC(=O)[C@@H]2C[C@@H](OC(F)F)CN2C(=O)CNC(=O)c2ccc(Oc3ccc(F)cc3)cc2)c1 [Compound 3] as the entry.
[A] > 7.00

[Q] Tell me its pIC50 given Cc1ccc2c(c1)C(F)(F)c1ccc(C(=O)NCC(=O)N3CC4(C[C@H]3C(=O)N[C@H](C)c3cc(C(=N)N)cs3)OCCO4)cc1-2 [Compound 190] as the entry.
[A] > 7.00

[Q] Tell me its pIC50 given Cc1ccc(-c2cnc(C(=O)NCC(=O)N3CC4(C[C@H]3C(=O)NCc3cc(C(=N)N)cs3)OCCO4)c(F)c2)cc1 [Compound 102] as the entry.
[A] > 7.00

[Q] Tell me its pIC50 given C[C@@H](NC(=O)[C@@H]1CC2(CN1C(=O)CNC(=O)c1ccc3c(c1)-c1ccccc1C3(F)F)OCCO2)c1cc(-c2cc[nH]n2)cs1 [Compound 97] as the entry.
[A] < 6.00

[Q] Tell me its pIC50 given N=C(N)c1csc(CNC(=O)[C@@H]2C[C@](F)(CF)CN2C(=O)CNC(=O)c2ccc3c(c2)-c2ccccc2C3(F)F)c1 [Compound 52] as the entry.
[A] > 7.00

[Q] Tell me its pIC50 given COC[C@@H]1C[C@@H](C(=O)N[C@H](C)c2cc(C(=N)N)cs2)N(C(=O)CNC(=O)c2ccc3c(c2)-c2ccccc2C3(F)F)C1 (relative stereo) [Compound 118] as the entry.
[A] > 7.00

[Q] Tell me its pIC50 given C[C@@H](NC(=O)[C@@H]1CC2(CN1C(=O)CNC(=O)c1ccc(Oc3ccc(F)cc3)cc1)OCCO2)c1ccc(C(=N)N)s1 [Compound 85] as the entry.
[A] > 7.00

[Q] Tell me its pIC50 given C[C@@H](NC(=O)[C@@H]1C[C@](F)(CN)CN1C(=O)CNC(=O)c1ccc2c(c1)-c1ccccc1C2(F)F)c1cc(C(=N)N)cs1 [Compound 35] as the entry.
[A] > 7.00

[Q] Tell me its pIC50 given Cc1cc(C(=O)NCC(=O)N2CC3(C[C@H]2C(=O)N[C@H](C)c2cc(C(=N)N)cs2)OCCO3)cc2c1C(F)(F)c1ccccc1-2 [Compound 179] as the entry.
[A] > 7.00

[Q] Tell me its pIC50 given C[C@@H](NC(=O)[C@@H]1C[C@@H](OC(F)F)CN1C(=O)CNC(=O)c1ccc(Oc2ccc(C(F)(F)F)cc2)cc1)c1cc(C(=N)N)cs1 [Compound 5] as the entry.
[A] > 7.00

[Q] Tell me its pIC50 given C[C@@H](NC(=O)[C@@H]1CC2(CN1C(=O)CNC(=O)c1ccc(-c3ccc(F)cc3)cn1)OCCO2)c1cc(C(=N)N)cs1 [Compound 163] as the entry.
[A] > 7.00

[Q] Tell me its pIC50 given N=C(N)c1csc(CNC(=O)[C@@H]2CC3(CN2C(=O)CNC(=O)c2ccc4c(c2)-c2ccccc2C4(F)F)OCCO3)c1 [Compound 55] as the entry.
[A] > 7.00

[Q] Tell me its pIC50 given Cc1ccc2c(c1)-c1cc(C(=O)NCC(=O)N3CC4(C[C@H]3C(=O)N[C@H](C)c3cc(C(=N)N)cs3)OCCO4)ccc1C2(F)F [Compound 180] as the entry.
[A] > 7.00

[Q] Tell me its pIC50 given COC[C@@]12C[C@@H]1N(C(=O)CNC(=O)c1ccc(Oc3ccc(F)cc3)cc1)[C@H](C(=O)N[C@H](C)c1ccc(C(=N)N)s1)C2 [Compound 38] as the entry.
[A] > 7.00

[Q] Tell me its pIC50 given C[C@@H](NC(=O)[C@@H]1C[C@](F)(CF)CN1C(=O)CNC(=O)c1ccc2c(c1)-c1ccccc1C2(F)F)c1ccc(C(=N)N)s1 [Compound 33] as the entry.
[A] > 7.00

[Q] Tell me its pIC50 given C[C@@H](NC(=O)[C@@H]1CC2(CN1C(=O)CNC(=O)c1ccc3c(c1)-c1ccccc1C3(F)F)OCCO2)c1cc(C(=N)N)cs1 [Compound 21] as the entry.
[A] > 7.00

[Q] Tell me its pIC50 given N=C(N)c1csc(CNC(=O)[C@@H]2CC3(CN2C(=O)CNC(=O)c2cccc(-c4ccccc4)n2)OCCO3)c1 [Compound 146] as the entry.
[A] > 7.00

[Q] Tell me its pIC50 given C[C@@H](NC(=O)[C@@H]1CC2(CN1C(=O)CNC(=O)c1cccc(-c3ccc(F)cc3)c1)OCCO2)c1cc(C(=N)N)cs1 [Compound 112] as the entry.
[A] > 7.00

[Q] Tell me its pIC50 given C[C@@H](NC(=O)[C@@H]1C[C@](F)(CF)CN1C(=O)CNC(=O)c1ccc(C(F)(F)c2ccccc2)cc1)c1cc(C(=N)N)cs1 [Compound 154] as the entry.
[A] > 7.00

[Q] Tell me its pIC50 given C[C@@H](NC(=O)[C@@H]1C[C@](F)(CF)CN1C(=O)CNC(=O)c1ccc(Oc2ccc(F)cc2)cc1)c1ccc(C(=N)N)s1 [Compound 40] as the entry.
[A] > 7.00
